Source of measurements: ChEMBL document CHEMBL4261630

- Target: Sialidase A (Streptococcus pneumoniae) (UniProt P62575)
- Sequence (P62575 whole entry): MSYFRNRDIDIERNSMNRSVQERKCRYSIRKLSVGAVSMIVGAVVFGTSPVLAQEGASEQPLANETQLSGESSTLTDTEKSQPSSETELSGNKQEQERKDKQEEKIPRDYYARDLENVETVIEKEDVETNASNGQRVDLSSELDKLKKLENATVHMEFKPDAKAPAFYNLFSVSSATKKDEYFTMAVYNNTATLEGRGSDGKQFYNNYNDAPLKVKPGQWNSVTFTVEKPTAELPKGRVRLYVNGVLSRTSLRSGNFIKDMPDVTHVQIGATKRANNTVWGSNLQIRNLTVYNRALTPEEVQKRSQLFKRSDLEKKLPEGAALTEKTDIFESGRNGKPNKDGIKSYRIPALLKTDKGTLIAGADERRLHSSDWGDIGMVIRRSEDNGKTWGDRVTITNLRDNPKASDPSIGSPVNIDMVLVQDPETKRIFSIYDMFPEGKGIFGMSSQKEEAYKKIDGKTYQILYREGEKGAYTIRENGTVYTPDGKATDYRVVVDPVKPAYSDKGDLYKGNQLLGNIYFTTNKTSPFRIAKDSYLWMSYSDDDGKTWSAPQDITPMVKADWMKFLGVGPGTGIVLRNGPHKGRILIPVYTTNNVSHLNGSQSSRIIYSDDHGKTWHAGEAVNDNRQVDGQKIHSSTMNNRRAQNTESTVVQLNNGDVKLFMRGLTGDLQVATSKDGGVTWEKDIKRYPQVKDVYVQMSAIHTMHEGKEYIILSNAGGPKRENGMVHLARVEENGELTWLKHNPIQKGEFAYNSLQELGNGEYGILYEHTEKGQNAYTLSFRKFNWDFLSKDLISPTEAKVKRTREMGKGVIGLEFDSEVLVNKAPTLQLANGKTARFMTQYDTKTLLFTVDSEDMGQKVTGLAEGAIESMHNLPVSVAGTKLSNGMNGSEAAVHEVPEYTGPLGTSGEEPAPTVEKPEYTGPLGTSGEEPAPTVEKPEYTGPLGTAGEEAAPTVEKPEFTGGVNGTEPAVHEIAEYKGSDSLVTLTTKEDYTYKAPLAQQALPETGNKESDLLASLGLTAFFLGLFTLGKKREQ
- Study conditions: at 0.1 mM
Kindly supply the reported inhibition values for the records listed here.
One number for each entry, in %.

# count of solved cases: 3
INSERT INTO assay_data (compound, units_of_measure, reading) VALUES
  ('CC(=O)N[C@H]1[C@H]([C@H](O)[C@H](O)CO)OC(C(=O)O)=C[C@@H]1O [NEU5AC2EN]', '%', 94.9),
  ('CC(=O)N[C@H]1[C@H]([C@H](O)[C@H](O)Cn2cc(C[C@H](N)C(=O)N[C@H](CCC(=O)O)C(N)=O)nn2)OC(C(=O)O)=C[C@@H]1O', '%', 61.9),
  ('CC(=O)N[C@H]1[C@H]([C@H](O)[C@H](O)CN=[N+]=[N-])OC(C(=O)O)=C[C@@H]1O', '%', 78.6);

The record that follows has no inhibition shown yet.
inhibition for `CC(=O)N[C@H]1[C@H]([C@H](O)[C@H](O)Cn2cc(C[C@H](N)C(=O)O)nn2)OC(C(=O)O)=C[C@@H]1O` ?
42.9

###

Answer each item with its documented inhibition.
- Target: Sialidase (Vibrio cholerae serotype O1 (strain ATCC 39315 / El Tor Inaba N16961)) (UniProt P0C6E9)
- Sequence (P0C6E9 whole entry, one chain of several): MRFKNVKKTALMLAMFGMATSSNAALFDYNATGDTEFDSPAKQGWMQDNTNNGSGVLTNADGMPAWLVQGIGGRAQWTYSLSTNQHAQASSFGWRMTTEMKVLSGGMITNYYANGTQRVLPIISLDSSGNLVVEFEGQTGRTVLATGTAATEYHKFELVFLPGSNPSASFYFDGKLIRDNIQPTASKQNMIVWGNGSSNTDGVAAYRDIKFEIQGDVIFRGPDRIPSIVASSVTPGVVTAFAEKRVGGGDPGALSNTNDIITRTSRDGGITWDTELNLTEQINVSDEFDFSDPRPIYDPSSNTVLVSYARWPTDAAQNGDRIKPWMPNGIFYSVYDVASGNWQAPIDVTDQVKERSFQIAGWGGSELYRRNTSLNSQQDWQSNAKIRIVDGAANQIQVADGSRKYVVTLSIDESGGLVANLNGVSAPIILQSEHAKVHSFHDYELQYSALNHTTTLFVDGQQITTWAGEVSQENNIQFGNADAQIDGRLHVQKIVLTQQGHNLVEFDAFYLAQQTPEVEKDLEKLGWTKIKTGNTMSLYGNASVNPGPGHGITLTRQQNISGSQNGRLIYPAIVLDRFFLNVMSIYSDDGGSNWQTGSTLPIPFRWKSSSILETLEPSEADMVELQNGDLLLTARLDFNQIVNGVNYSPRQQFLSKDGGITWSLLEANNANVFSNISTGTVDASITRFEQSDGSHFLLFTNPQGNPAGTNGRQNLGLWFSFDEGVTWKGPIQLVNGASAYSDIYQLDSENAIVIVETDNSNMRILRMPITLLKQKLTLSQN
- Study conditions: at 0.1 mM
Give bare numbers, in %.

Known results for compounds:
INSERT INTO results (structure_string, reading) VALUES
  ('CC(=O)N[C@H]1[C@H]([C@H](O)[C@H](O)CN=[N+]=[N-])OC(C(=O)O)=C[C@@H]1O', 86),
  ('CC(=O)N[C@H]1[C@H]([C@H](O)[C@H](O)Cn2cc(C[C@H](N)C(=O)N[C@H](CCC(=O)O)C(N)=O)nn2)OC(C(=O)O)=C[C@@H]1O', 85.8);

For each of the compounds below, state inhibition.
1. CC(=O)N[C@H]1[C@H]([C@H](O)[C@H](O)CO)OC(C(=O)O)=C[C@@H]1O
2. CC(=O)N[C@H]1[C@H]([C@H](O)[C@H](O)Cn2cc(C[C@H](N)C(=O)O)nn2)OC(C(=O)O)=C[C@@H]1O

88.2
82

###

- Target: Sialidase (Clostridium perfringens)
- Study conditions: at 0.1 mM
Experimental endpoint: inhibition (%)
Numbers only, in %.

Sample answers from the record:
INSERT INTO measurements (structure_string, experimental_endpoint, units_of_measure, reading) VALUES
  ('CC(=O)N[C@H]1[C@H]([C@H](O)[C@H](O)Cn2cc(C[C@H](N)C(=O)O)nn2)OC(C(=O)O)=C[C@@H]1O', 'inhibition', '%', 17.6),
  ('CC(=O)N[C@H]1[C@H]([C@H](O)[C@H](O)CN=[N+]=[N-])OC(C(=O)O)=C[C@@H]1O', 'inhibition', '%', 57.1),
  ('CC(=O)N[C@H]1[C@H]([C@H](O)[C@H](O)CO)OC(C(=O)O)=C[C@@H]1O', 'inhibition', '%', 72.1);

Now turn to the next compound.
Requested read-out: inhibition. Entry: `CC(=O)N[C@H]1[C@H]([C@H](O)[C@H](O)Cn2cc(C[C@H](N)C(=O)N[C@H](CCC(=O)O)C(N)=O)nn2)OC(C(=O)O)=C[C@@H]1O`
48.9

###

- Test system: Pasteurella multocida
- Study conditions: at 1 mM
Experimental endpoint: inhibition (%)
One number for each entry, in %.

Would you please look over these solved cases?
INSERT INTO results (structure_string, experimental_endpoint, units_of_measure, reading) VALUES
  ('CC(=O)N[C@H]1[C@H]([C@H](O)[C@H](O)CN=[N+]=[N-])OC(C(=O)O)=C[C@@H]1O', 'inhibition', '%', 14.9),
  ('CC(=O)N[C@H]1[C@H]([C@H](O)[C@H](O)Cn2cc(C[C@H](N)C(=O)N[C@H](CCC(=O)O)C(N)=O)nn2)OC(C(=O)O)=C[C@@H]1O', 'inhibition', '%', 6),
  ('CC(=O)N[C@H]1[C@H]([C@H](O)[C@H](O)Cn2cc(C[C@H](N)C(=O)O)nn2)OC(C(=O)O)=C[C@@H]1O', 'inhibition', '%', 9.1);

# evaluate next
Entry `CC(=O)N[C@H]1[C@H]([C@H](O)[C@H](O)CO)OC(C(=O)O)=C[C@@H]1O` has what inhibition?
9.3

###

- Target: Sialidase B (Streptococcus pneumoniae serotype 4 (strain ATCC BAA-334 / TIGR4)) (UniProt Q54727)
- Sequence (whole entry): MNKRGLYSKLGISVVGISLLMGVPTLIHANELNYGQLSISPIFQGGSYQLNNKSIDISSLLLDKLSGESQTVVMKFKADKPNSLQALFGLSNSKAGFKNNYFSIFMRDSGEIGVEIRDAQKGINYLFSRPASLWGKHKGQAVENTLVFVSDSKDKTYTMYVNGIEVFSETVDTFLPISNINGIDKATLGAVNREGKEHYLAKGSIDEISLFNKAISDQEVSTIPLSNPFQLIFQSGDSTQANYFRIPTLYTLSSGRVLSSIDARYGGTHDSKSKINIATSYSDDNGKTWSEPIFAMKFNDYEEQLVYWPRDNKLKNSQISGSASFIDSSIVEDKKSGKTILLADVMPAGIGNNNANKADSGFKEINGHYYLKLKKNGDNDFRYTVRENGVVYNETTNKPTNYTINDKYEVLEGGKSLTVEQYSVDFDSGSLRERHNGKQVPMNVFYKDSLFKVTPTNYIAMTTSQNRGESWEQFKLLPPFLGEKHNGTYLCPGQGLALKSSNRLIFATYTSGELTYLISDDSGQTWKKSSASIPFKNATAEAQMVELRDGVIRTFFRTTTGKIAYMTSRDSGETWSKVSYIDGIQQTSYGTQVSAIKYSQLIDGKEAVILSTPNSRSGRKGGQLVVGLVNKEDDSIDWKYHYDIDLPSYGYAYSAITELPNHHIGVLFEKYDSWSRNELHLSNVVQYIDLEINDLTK
- Study conditions: at 0.1 mM
Experimental endpoint: inhibition (%)
Numbers only, in %.

INSERT INTO results (molecule, experimental_endpoint, units_of_measure, reading) VALUES
  ('CC(=O)N[C@H]1[C@H]([C@H](O)[C@H](O)Cn2cc(C[C@H](N)C(=O)N[C@H](CCC(=O)O)C(N)=O)nn2)OC(C(=O)O)=C[C@@H]1O', 'inhibition', '%', 12.6),
  ('CC(=O)N[C@H]1[C@H]([C@H](O)[C@H](O)Cn2cc(C[C@H](N)C(=O)O)nn2)OC(C(=O)O)=C[C@@H]1O', 'inhibition', '%', 8.8),
  ('CC(=O)N[C@H]1[C@H]([C@H](O)[C@H](O)CN=[N+]=[N-])OC(C(=O)O)=C[C@@H]1O', 'inhibition', '%', 6.6);

Then there is this molecule:
What value of inhibition has been recorded for this entry: CC(=O)N[C@H]1[C@H]([C@H](O)[C@H](O)CO)OC(C(=O)O)=C[C@@H]1O [NEU5AC2EN]
2.7

###

- Target: Neuraminidase C (Streptococcus pneumoniae) (UniProt A0A0B7LH44)
- Study conditions: at 1 mM
Experimental endpoint: inhibition (%)
One number for each entry, in %.

Reference set (4 entries):
INSERT INTO assay_data (compound, target, reading) VALUES
  ('CC(=O)N[C@H]1[C@H]([C@H](O)[C@H](O)Cn2cc(C[C@H](N)C(=O)N[C@H](CCC(=O)O)C(N)=O)nn2)OC(C(=O)O)=C[C@@H]1O', 'Neuraminidase C (Streptococcus pneumoniae) (UniProt A0A0B7LH44)', 29.7),
  ('CC(=O)N[C@H]1[C@H]([C@H](O)[C@H](O)Cn2cc(C[C@H](NC(=O)[C@@H](N)CCC(=O)O)C(=O)N[C@@H](CCCCN)C(=O)N[C@@H](CCC(=O)O)C(N)=O)nn2)OC(C(=O)O)=C[C@@H]1O', 'Neuraminidase C (Streptococcus pneumoniae) (UniProt A0A0B7LH44)', 9.8),
  ('CC(=O)N[C@H]1[C@H]([C@H](O)[C@H](O)CO)OC(C(=O)O)=C[C@@H]1O [NEU5AC2EN]', 'Neuraminidase C (Streptococcus pneumoniae) (UniProt A0A0B7LH44)', 23.7),
  ('CC(=O)N[C@H]1[C@H]([C@H](O)[C@H](O)CN=[N+]=[N-])OC(C(=O)O)=C[C@@H]1O', 'Neuraminidase C (Streptococcus pneumoniae) (UniProt A0A0B7LH44)', 39.2);

Consider the record given below.
Find inhibition (Neuraminidase C (Streptococcus pneumoniae) (UniProt A0A0B7LH44)) for the entry `CC(=O)N[C@H]1[C@H]([C@H](O)[C@H](O)Cn2cc(C[C@H](N)C(=O)O)nn2)OC(C(=O)O)=C[C@@H]1O`
47.8

###

- Target: Neuraminidase C (Streptococcus pneumoniae)
- Sequence (whole entry): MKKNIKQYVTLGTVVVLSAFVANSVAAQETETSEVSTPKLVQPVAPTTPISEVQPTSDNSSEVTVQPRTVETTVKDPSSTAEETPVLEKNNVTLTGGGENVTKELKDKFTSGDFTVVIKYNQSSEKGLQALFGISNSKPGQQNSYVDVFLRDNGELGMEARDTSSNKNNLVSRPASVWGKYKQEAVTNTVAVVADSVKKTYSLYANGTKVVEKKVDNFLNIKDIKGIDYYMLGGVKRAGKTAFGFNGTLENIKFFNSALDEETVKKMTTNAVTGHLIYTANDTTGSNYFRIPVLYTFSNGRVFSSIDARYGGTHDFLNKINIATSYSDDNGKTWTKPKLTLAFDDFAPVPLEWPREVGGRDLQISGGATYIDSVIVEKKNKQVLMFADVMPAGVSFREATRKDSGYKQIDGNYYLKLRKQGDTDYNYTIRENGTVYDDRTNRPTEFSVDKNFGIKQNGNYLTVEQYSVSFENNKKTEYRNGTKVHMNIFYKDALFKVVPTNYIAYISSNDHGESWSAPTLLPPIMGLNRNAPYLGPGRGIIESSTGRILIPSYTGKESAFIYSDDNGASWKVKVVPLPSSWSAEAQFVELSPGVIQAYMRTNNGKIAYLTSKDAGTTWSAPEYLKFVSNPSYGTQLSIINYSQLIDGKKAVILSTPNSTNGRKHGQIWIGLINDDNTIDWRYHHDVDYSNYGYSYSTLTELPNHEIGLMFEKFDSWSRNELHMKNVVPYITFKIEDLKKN
- Study conditions: at 0.1 mM
Experimental endpoint: inhibition
Provide the measurement as a number trailed by its unit.

Known results for compounds:
INSERT INTO measurements (structure_string, reading) VALUES
  ('CC(=O)N[C@H]1[C@H]([C@H](O)[C@H](O)Cn2cc(C[C@H](N)C(=O)O)nn2)OC(C(=O)O)=C[C@@H]1O', '15.3%'),
  ('CC(=O)N[C@H]1[C@H]([C@H](O)[C@H](O)CN=[N+]=[N-])OC(C(=O)O)=C[C@@H]1O', '13.4%'),
  ('CC(=O)N[C@H]1[C@H]([C@H](O)[C@H](O)Cn2cc(C[C@H](N)C(=O)N[C@H](CCC(=O)O)C(N)=O)nn2)OC(C(=O)O)=C[C@@H]1O', '13.5%');

Next, consider the following compound.
Using the record for `CC(=O)N[C@H]1[C@H]([C@H](O)[C@H](O)CO)OC(C(=O)O)=C[C@@H]1O` , report its inhibition.
6.3%
